# target of assay: Sialic acid-binding Ig-like lectin 9 (Homo sapiens) (UniProt Q9Y336)
# Sequence (Q9Y336 whole entry): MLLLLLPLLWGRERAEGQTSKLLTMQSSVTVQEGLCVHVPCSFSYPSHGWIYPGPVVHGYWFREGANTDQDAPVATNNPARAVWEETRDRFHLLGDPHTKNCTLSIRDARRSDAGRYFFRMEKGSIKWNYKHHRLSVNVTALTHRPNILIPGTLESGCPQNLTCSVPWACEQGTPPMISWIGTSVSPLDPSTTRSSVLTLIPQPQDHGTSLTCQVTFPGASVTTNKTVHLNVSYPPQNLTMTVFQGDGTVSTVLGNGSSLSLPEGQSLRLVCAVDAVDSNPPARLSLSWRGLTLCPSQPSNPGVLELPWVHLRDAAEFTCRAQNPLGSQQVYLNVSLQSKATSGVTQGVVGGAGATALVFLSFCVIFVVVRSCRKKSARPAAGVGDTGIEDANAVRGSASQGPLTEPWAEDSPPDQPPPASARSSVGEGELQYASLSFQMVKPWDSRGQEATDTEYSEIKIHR
# method notes: Hs-Siglec9 ALPHAscreen SOP 20170721
# Design: scale not given: direction of the effect not stated beside the values
# condition: 10 µM
metric name: Percent Effect

Task: Could you share what Percent Effect was measured for CCn1nc(CC(C)C)cc1C(=O)N1CC[C@@H](O)C1 , tested on Sialic acid-binding Ig-like lectin 9 (Homo sapiens) (UniProt Q9Y336)?
Result: 22.7%

Task: Field entry: CCOCCNc1nc(C2CCCC2)nc2c1cnn2C
Result: -4.4%

Task: Field entry: CNC(=O)c1cnc(/C=C/c2cc(OC)cc(OC)c2)s1
Result: 7.75%

Task: Field entry: Cn1cc(-c2cnc(N3CCCC3)nc2)cc1C(=O)O
Result: 6.18%

Task: Field entry: Cc1ccccc1C(=O)CN1C(=O)c2ccccc2CS1(=O)=O
Result: -3.21%

Task: Field entry: CCc1nsc(NC2CCCn3nc(COC)nc32)n1 (stereo not drawn)
Result: 21.4%

Task: Field entry: CCC1=N[C@@]2(CC[C@@H]3CN(Cc4ccc(Cl)cc4)C[C@@H]32)C(=O)N1C
Result: 4.31%

Task: Field entry: CC(C)(C)c1ncc(C(=O)NCCNC(=O)c2ccccc2)s1
Result: 1.92%
